Every entry's value here was drawn from patent US20150072968A1.

test.protocol: Phase 1 single dose PK of 750 mg ceftolozane/tazobactam in severe renal impairment and ESRD on hemodialysis (Example 8)
Format: in vivo, human
condition.set: both sexes, human, plasma, iv, 750 mg, ESRD on HD; Day 1 IV infusion of 750 mg (non-hemodialysis phase); read-out: CL, Mean (CV %) (converted)
value.type: clearance (mL/min)
One number for each entry, in mL/min.

Required: clearance, one value per compound below.
1. C[C@]1(Cn2ccnn2)[C@H](C(=O)O)N2C(=O)C[C@H]2S1(=O)=O
2. Cn1c(N)c(NC(=O)NCCN)c[n+]1CC1=C(C(=O)[O-])N2C(=O)[C@@H](NC(=O)/C(=N\OC(C)(C)C(=O)O)c3nsc(N)n3)[C@H]2SC1

Response:
1: 50; 2: 6.67
